assayed_target: JAK1 (Homo sapiens, UniProt P23458)
Construct: 5 μl of catalytic domain recombinant Kinase enzyme+Tyr peptide substrate (Invitrogen, Calif.); purchased Invitrogen
Sequence (P23458 875-1153 limits assumed): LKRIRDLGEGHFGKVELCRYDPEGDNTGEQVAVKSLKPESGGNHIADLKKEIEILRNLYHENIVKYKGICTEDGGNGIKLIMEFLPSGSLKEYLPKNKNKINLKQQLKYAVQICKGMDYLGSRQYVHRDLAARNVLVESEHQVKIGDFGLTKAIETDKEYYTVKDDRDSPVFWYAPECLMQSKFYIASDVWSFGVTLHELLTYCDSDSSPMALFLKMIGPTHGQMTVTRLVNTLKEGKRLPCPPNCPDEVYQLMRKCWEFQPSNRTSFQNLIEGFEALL
measurement_description: Z'-LYTE kinase assay, JAK1 tyrosine phosphorylation activity
Assay type: biochemical
protocol_conditions: read-out: JAK 1 IC50
parameter: IC50

>  <compound>
CN(C)[C@@H]1CCN(C(=O)Nc2cccc(Nc3ncc(C(N)=O)c(NCc4ccccc4)n3)c2)C1

>  <assayed_target>
JAK1 (Homo sapiens, UniProt P23458)

>  <result>
10 to 100 nM

$$$$
>  <compound>
CC(=O)Nc1cccc(Nc2ncc(C(N)=O)c(NCC3CCCNC3)n2)c1 (centres unmarked)

>  <assayed_target>
JAK1 (Homo sapiens, UniProt P23458)

>  <result>
10 to 100 nM

$$$$
>  <compound>
NC(=O)c1cnc(Nc2ccc(Cl)c(NC(=O)N3CCC3)c2)nc1NCc1ccccc1

>  <assayed_target>
JAK1 (Homo sapiens, UniProt P23458)

>  <result>
100 to 1000 nM

$$$$
>  <compound>
CC(=O)Nc1cccc(Nc2ncc(C(N)=O)c(NCCN3CCOCC3)n2)c1

>  <assayed_target>
JAK1 (Homo sapiens, UniProt P23458)

>  <result>
100 to 1000 nM

$$$$
>  <compound>
CNC(=O)Nc1cccc(Nc2ncc(C(N)=O)c(NCc3ccccc3F)n2)c1

>  <assayed_target>
JAK1 (Homo sapiens, UniProt P23458)

>  <result>
10 to 100 nM

$$$$

Test item NC(=O)c1cnc(Nc2ccc(F)c(NC(=O)N3CCC3)c2)cc1NCc1cccc(F)c1 ; JAK1 (Homo sapiens, UniProt P23458); reported IC50 was 100 to 1000 nM

Summary: COC(CNc1nc(Nc2cccc(NC(C)=O)c2)ncc1C(N)=O)c1ccccc1 (centres unmarked) , JAK1 (Homo sapiens, UniProt P23458), IC50 = 10 to 100 nM

Lab entry: JAK1 (Homo sapiens, UniProt P23458) assay, compound CC[C@H](C)Nc1nc(Nc2cccc(NC(=O)COC)c2)ncc1C(N)=O , IC50 = 100 to 1000 nM
